# system name: GABA-A receptor alpha-4/beta-3/delta (Homo sapiens, UniProt P28472+P48169+)
# Sequence (P28472 whole entry): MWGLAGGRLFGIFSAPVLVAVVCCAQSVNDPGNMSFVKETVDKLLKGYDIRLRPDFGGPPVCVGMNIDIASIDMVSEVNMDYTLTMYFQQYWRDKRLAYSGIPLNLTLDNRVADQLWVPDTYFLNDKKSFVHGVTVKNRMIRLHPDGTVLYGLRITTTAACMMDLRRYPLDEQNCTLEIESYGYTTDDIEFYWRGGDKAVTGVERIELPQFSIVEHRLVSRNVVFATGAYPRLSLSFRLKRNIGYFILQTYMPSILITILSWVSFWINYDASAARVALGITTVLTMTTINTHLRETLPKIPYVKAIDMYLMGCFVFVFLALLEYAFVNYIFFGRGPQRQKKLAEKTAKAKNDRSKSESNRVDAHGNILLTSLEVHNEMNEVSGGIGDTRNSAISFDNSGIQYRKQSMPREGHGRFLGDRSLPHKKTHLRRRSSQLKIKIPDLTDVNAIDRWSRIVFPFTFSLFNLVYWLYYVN
# Sequence (P48169 whole entry): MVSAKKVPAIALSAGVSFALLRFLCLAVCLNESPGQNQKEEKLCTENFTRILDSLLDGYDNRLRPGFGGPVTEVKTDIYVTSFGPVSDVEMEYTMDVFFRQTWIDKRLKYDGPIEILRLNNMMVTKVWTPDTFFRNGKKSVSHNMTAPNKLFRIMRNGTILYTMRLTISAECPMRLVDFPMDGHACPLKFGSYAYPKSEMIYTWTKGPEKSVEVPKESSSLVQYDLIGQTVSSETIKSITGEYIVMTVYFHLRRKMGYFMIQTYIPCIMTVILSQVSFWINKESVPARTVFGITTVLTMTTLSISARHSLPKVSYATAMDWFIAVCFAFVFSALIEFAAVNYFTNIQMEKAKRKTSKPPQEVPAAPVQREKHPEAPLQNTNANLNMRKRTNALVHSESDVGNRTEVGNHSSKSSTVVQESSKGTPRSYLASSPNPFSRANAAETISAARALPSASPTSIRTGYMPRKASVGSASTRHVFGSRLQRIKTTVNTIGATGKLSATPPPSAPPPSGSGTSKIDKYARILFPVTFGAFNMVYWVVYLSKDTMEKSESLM
# Sequence (Q06278 whole entry, further chain): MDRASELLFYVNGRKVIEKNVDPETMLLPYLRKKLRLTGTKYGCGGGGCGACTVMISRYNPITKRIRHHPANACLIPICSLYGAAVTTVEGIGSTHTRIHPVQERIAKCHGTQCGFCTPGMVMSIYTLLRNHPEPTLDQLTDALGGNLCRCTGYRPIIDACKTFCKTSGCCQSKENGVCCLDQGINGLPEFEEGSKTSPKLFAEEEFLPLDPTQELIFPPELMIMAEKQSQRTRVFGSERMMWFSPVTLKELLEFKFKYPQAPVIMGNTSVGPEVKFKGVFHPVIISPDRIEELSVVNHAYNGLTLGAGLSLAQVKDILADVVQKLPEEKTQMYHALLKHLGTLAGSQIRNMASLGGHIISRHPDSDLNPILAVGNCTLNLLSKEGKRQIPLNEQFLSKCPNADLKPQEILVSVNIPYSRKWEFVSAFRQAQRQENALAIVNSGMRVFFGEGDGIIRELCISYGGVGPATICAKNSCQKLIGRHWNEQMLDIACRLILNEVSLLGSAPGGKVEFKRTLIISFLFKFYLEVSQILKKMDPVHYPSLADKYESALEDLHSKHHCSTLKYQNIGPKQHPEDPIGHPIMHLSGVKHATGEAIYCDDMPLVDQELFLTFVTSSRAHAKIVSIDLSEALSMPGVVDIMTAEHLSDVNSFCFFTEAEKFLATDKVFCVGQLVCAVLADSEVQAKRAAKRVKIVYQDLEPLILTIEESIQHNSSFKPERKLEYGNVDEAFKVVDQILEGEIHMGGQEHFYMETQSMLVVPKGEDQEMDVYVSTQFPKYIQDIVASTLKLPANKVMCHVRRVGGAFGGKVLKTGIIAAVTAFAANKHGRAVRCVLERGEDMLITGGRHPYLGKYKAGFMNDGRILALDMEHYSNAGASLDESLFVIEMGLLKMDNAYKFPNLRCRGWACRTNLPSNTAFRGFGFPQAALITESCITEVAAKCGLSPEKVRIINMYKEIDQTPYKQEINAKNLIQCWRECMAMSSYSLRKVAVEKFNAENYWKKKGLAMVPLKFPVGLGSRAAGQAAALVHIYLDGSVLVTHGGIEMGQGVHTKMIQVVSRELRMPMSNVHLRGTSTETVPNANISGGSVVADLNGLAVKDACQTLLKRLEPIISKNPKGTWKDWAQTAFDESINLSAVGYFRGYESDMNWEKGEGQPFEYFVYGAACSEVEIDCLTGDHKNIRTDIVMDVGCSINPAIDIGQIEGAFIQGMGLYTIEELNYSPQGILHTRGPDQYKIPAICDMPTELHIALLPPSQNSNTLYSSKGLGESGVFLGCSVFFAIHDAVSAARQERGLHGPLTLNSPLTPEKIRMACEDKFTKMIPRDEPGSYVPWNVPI
# method description: Positive allosteric modulation of GABAA receptor alpha4beta3delta (unknown origin) expressed in CHO cells assessed as potentiation of GABA-mediated increase in channel current under holding potential at -80 mV at 0.01 to 10 uM preincubated for 30 secs followed by GABA stimulation for 2 secs by manual patch clamp assay relative to GABA
# Assay type: cell-based
# assay setup: 2 s
Short version: Emax at least 600% is 1 (yes), less is 0 (no).

chemical_smiles=C[C@@]1(O)CC[C@H]2[C@H](CC[C@@H]3[C@@H]2CC[C@]2(C)[C@@H](C(=O)Cn4nccn4)CC[C@@H]32)C1 class_name="0 (no)"
chemical_smiles=CC(=O)[C@H]1CC[C@H]2[C@@H]3CC[C@H]4C[C@H](O)CC[C@]4(C)[C@H]3CC[C@]12C class_name="0 (no)"
chemical_smiles=C[C@@]1(O)CC[C@H]2[C@H](CC[C@@H]3[C@@H]2CC[C@]2(C)[C@@H](C(=O)Cn4ccc(C#N)n4)CC[C@@H]32)C1 class_name="0 (no)"
chemical_smiles=C[C@@]1(O)CC[C@H]2[C@H](CC[C@@H]3[C@@H]2CC[C@]2(C)[C@@H](C(=O)Cn4cc(C#N)cn4)CC[C@@H]32)C1 class_name="0 (no)"
chemical_smiles=Cc1cnn(CC(=O)[C@H]2CC[C@H]3[C@@H]4CC[C@@H]5C[C@](C)(O)CC[C@@H]5[C@H]4CC[C@]23C)c1 class_name="1 (yes)"
